Each entry below lists one item and its recorded absorbance 490 nm/630 nm value.
- SYSTEM UNDER TEST: T1, Ala mutant SEQ ID NO: 31 (human)
- T1 sequence (peptide): EENMADQWMQDEMEIGY
- TEST PROTOCOL: ELISA, peptide on plate (10 ug/mL)
Report the value in OD with no unit label.

These solved cases illustrate the format of a correct answer.
1. E9 (antibody, IgG1, V domains shown) VH: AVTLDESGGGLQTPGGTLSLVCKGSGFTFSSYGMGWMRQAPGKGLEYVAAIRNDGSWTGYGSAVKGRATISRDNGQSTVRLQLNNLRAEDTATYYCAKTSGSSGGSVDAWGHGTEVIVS VL: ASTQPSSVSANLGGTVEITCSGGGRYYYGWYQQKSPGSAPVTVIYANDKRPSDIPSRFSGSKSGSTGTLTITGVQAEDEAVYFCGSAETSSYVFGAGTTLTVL ... 1.38
2. G8 (antibody, IgG1, V domains shown) VH: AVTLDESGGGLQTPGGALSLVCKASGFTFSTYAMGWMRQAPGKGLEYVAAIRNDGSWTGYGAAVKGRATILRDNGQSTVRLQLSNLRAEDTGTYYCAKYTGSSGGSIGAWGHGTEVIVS VL: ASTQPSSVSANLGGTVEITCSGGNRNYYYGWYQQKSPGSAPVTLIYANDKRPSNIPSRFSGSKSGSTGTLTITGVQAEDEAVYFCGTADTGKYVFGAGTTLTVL ... 1.85

Next binder, please.
Documented absorbance 490 nm/630 nm of H7 (antibody, IgG1, V domains shown) VH: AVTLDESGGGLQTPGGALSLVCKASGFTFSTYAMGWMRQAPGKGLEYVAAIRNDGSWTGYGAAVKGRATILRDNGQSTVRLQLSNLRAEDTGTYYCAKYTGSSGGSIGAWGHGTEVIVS VL: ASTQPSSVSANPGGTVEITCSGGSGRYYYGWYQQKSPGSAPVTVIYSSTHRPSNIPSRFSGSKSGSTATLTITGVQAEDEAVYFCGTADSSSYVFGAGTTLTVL : 0.462
